# assay-system: Lysine-specific demethylase 4A (Homo sapiens) (UniProt O75164)
# Sequence (O75164 whole entry, looked up, the tested form may be a part): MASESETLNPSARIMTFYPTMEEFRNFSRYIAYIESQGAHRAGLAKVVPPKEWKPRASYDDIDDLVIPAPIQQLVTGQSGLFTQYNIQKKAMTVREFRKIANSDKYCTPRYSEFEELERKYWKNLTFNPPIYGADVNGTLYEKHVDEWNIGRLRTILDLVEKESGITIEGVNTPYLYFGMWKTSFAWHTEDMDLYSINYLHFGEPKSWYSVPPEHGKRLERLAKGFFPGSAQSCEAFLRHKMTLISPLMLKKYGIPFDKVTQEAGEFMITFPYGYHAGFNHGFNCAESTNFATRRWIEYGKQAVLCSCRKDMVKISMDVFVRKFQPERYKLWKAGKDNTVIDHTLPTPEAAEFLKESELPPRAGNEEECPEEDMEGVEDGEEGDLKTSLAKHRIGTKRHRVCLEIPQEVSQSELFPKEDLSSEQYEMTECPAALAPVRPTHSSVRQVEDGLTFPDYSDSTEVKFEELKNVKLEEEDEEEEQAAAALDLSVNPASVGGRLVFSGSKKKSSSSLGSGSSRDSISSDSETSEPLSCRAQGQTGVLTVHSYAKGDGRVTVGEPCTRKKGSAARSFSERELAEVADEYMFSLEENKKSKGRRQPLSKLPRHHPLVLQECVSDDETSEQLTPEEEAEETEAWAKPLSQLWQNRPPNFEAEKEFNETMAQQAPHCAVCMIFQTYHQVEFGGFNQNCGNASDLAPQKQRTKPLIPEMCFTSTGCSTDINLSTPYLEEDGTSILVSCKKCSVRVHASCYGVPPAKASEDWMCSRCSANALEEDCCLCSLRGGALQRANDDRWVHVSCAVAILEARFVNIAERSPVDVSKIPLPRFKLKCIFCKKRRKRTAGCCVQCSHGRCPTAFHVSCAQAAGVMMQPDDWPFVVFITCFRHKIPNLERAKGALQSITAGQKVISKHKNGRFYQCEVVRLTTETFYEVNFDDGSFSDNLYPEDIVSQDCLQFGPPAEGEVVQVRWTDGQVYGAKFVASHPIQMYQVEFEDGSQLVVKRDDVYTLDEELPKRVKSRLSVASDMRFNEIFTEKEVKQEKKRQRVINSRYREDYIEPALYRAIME
# method-description: qHTS Assay for Inhibitors of JMJD2A-Tudor Domain; also: nearly all actives have a fitted effect of over 50% in size; also: potency is read from the fitted curve at half-maximal effect
# setup-conditions: AlphaScreen JMJD2A-Tudor / H3K4me3 peptide binding; series mostly up to 114 µM
Among all 390,000 compounds or so, about 17,000 (4.4%) were called active. About 8% were inconclusive and are not listed. The full list was thinned out, with actives kept by preference.
measured-parameter: Potency

| compound | assay-system | reported |
| --- | --- | --- |
| CC1=C(C(=O)OCC(C)C)C(c2ccc(OCc3ccccc3)cc2)N2C(=O)CCSC2=N1 (configuration not stated) | Lysine-specific demethylase 4A (Homo sapiens) (UniProt O75164) | inactive |
| COc1ccc(NC(=O)COCc2cc(-c3ccco3)on2)cc1 | Lysine-specific demethylase 4A (Homo sapiens) (UniProt O75164) | inactive |
| O=C(NCc1ccccc1)c1cc(-c2cccc(Cl)c2)on1 | Lysine-specific demethylase 4A (Homo sapiens) (UniProt O75164) | inactive |
| CCOC(=O)c1cccc(NC(=O)c2cc(S(=O)(=O)N3CCCC(C)C3)cn2C)c1 (configuration not stated) | Lysine-specific demethylase 4A (Homo sapiens) (UniProt O75164) | inactive |

Q: Quick one: give measured Potency for CNc1ccc(NC(C)=O)cc1[N+](=O)[O-]
Ans: inactive

Q: Tell me Potency reported for O=C(O)C(c1ccccc1)N1C(=O)/C(=C\c2ccc(-c3cccc(Cl)c3)o2)SC1=S (configuration not stated)
Ans: 20 µM (active)

----------
# assay-system: Lysine-specific demethylase 4A (Homo sapiens)
# method-description: qHTS Assay for Inhibitors of JMJD2A-Tudor Domain; also: nearly all actives have a fitted effect of over 50% in size
# setup-conditions: AlphaScreen JMJD2A-Tudor / H3K4me3 peptide binding; series mostly up to 114 µM
The whole screen tested about 390,000 compounds, of which about 17,000 (4.4%) were called active. About 8% were inconclusive and are not listed. Calls follow the shape of the dose curve; as a rule, active = well fitted inhibition curve with a large enough effect; inconclusive = small, poorly fitted or top-dose-only effect; inactive = no such curve, though single readings can be large or run the other way. This excerpt belongs to a sample that is enriched for actives.
Allowed answers: active, inactive

| compound | assay-system | category-label |
| --- | --- | --- |
| COc1ccc(OCCn2cc(C(=O)C3CCCCC3)c3ccccc32)cc1 | Lysine-specific demethylase 4A (Homo sapiens) | inactive |
| COCCNC(=O)Nc1ccc2nc(-c3ccco3)c(-c3ccco3)nc2c1 | Lysine-specific demethylase 4A (Homo sapiens) | active |
| O=C(NCc1ccccc1)c1ccc2c(c1)nc1n2CCCCC1 | Lysine-specific demethylase 4A (Homo sapiens) | inactive |
| COc1ccc(CCCc2nnc(SCc3nc4ccccc4c(=O)[nH]3)n2C)cc1 | Lysine-specific demethylase 4A (Homo sapiens) | active |
| Oc1ccccc1/C=N/n1c(-c2cccs2)n[nH]c1=S | Lysine-specific demethylase 4A (Homo sapiens) | active |
| Cc1ccc2nc(-c3ccc(C)c(NC(=O)Cc4ccccc4)c3)oc2c1 | Lysine-specific demethylase 4A (Homo sapiens) | inactive |

Q: What outcome does the record of this test show for O=C1CC(Sc2ncn[nH]2)C(=O)N1c1ccccc1 (stereo not drawn) ?
Ans: active

Q: What outcome does the record of this test show for CCOC(=O)c1c(NC(=O)CSc2nccc(=O)[nH]2)sc(C)c1C ?
Ans: inactive

Q: Assay outcome for Cc1ccc(N2C(=O)CC(Sc3ncn[nH]3)C2=O)cc1 (stereo not drawn) : what was it?
Ans: active

Q: What is the recorded call for this compound in the test? CCOc1ccccc1N1C(=O)CC(Sc2nccc(C)n2)C1=O (stereo not drawn)
Ans: inactive

Q: State the result this test recorded for CCC(Sc1nc2n[nH]c(C)c2c(=N)n1-c1ccccc1Cl)C(=O)N(CC)CC (stereo not drawn) .
Ans: inactive

Q: Dear colleague, could you share the recorded outcome for COc1ccc(NC(=O)CSc2nc(N)c(-c3ccccc3)c(=O)[nH]2)cc1 when you have a moment?
Ans: inactive

Entry source: PubChem BioAssay AID504339
